Give measured activation for each item. Keep answers brief.
- target-entity: Kallikrein-7 (Homo sapiens) (UniProt P49862)
- Sequence (P49862 whole entry, looked up): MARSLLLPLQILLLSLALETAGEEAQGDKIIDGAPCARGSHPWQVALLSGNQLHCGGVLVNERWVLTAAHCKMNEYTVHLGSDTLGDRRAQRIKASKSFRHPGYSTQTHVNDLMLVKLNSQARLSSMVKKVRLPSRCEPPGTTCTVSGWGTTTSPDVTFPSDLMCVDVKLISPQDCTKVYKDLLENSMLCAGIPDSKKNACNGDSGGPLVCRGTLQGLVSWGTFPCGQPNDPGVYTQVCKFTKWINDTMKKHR
- experimental-protocol: activation of human kallikrein-7 proenzyme – biochemical, fluorescence intensity, primary screen (AID 652039)
- condition-context: purified proKLK7, EDANS-DABCYL substrate fluorescence; at 7 µM; hits give high values; 100% is mature enzyme control, 0% vehicle
Among all 370,000 compounds or so, about 3,300 (0.89%) were called active. The sample as a whole holds a higher share of actives than the screen did.

compound	target-entity	activation
CCCc1nnc(NC(=O)CCC(=O)N2CCN(S(=O)(=O)c3ccc(OC)cc3)CC2)s1	Kallikrein-7 (Homo sapiens) (UniProt P49862)	-0.03% (inactive)
O=C(O)c1ccc2c(c1)C(=O)N(c1ccc(/C=C/C(=O)c3ccccc3)cc1)C2=O	Kallikrein-7 (Homo sapiens) (UniProt P49862)	108% (active)
C#CCNC(=O)C[C@H]1C[C@@]2(C(=O)OC)C(=C[C@H](C(C)C)O[C@@H]2C2CC2)N(Cc2ccco2)C1=O	Kallikrein-7 (Homo sapiens) (UniProt P49862)	0.24% (inactive)
Cc1cc(=O)[nH]c(SCC(=O)Nc2ccc(Cl)cc2C)n1	Kallikrein-7 (Homo sapiens) (UniProt P49862)	-0.02% (inactive)

Could I get activation for every one of these entries?
1. CC(=O)N1CCN(C(=O)c2cc(-c3ccc(C)o3)nc3ccccc23)CC1
2. COc1cc(C(=O)NC(=S)NCc2ccco2)cc(OC)c1OC
3. C[C@H](C(=O)N(C)c1ccccc1)[C@@H](O)c1ccc(Cl)cc1

[reply]
35.2% (active)
0.52% (inactive)
0.11% (inactive)

Go through the list and state activation for each entry.
1. CCC(CO)Nc1cccc2c1S(=O)(=O)N(Cc1cn(Cc3ccccc3C(F)(F)F)nn1)Cc1ccccc1O2 (stereo not drawn)
2. CC1CCN(c2oc(-c3ccccc3F)nc2C#N)CC1
3. COc1ccc(-n2c(SCC(=O)NC3CCCC3)nnc2-c2ccncc2)cc1
4. O=C(O)c1cnn2c(C(F)(F)F)cc(-c3ccccc3)nc12
5. CCn1c(SCC(C)=O)nc2sc3c(c2c1=O)CCCC3
6. CCOC(=O)c1c(NC(=S)SC)sc(C(=O)N2CCc3ccccc3C2)c1C
7. Cc1cc(NC(=O)CCN2CCN(Cc3ccccc3)CC2)ccc1Br
8. O=C(OC12CCCN(C1)/C(=C/c1ccccc1)C2)c1ccco1 (stereo not drawn)

[reply]
["0.4% (inactive)", "-0.12% (inactive)", "0.32% (inactive)", "-0.59% (inactive)", "0.36% (inactive)", "0.73% (inactive)", "0.91% (inactive)", "0.07% (inactive)"]
